- assay.procedure: Half life of the compound
- Format: ADME
measurement.label: half-life (h)
Reply with just the number (in h).

## Input Can you share its half-life? I mean this compound: Nc1ncnc2c1ncn2[C@H]1C=C[C@@H](CO)O1
## Output 74.4

The measurements presented in this section are drawn from ChEMBL document CHEMBL1130251.
